Hi there, I'd appreciate the recorded GI50 for every entry that follows.
tested on: SK-OV-3; test: NCI tumour cell line growth inhibition, 48 h
Calls of active or inactive are those of the source. No stated cut-off is given here; in the data, active = GI50 up to about 1.1 µM and inactive = higher.

Previously resolved entries follow.
>>> df
                                   compound  quantity_measured             measured
0  CC1(Cl)CC(C)(/C=C/Cl)C(Cl)CC1Cl (stereo unspecified)               GI50   38.4 µM (inactive)
1       COc1ccc(C(=O)/C=C/S/C(=N/C#N)SC)cc1               GI50   26.2 µM (inactive)
2  CCCCCCCCCCCCN1[C@H]2CCC[C@H]2C(O)[C@@H]2CCC[C@@H]21 (stereo partly specified)               GI50  > 100 µM (inactive)
3  c1cc(-c2ccc(-c3ccc(C4=NC5CCCCC5N4)cc3)o2)ccc1C1=NC2CCCCC2N1 (stereo unspecified)               GI50   1.64 µM (inactive)

Would you mind giving GI50 for every compound in the list below?
1. O=C(CC1=NCCN1)c1ccccc1
2. O=C(NP(=O)(N1CC1)N1CC1)c1cc(I)ccc1I

> 750 µM (inactive)
25.6 µM (inactive)

* * *

Hi there, I'd appreciate the recorded GI50 for every entry that follows.
system: SR; assay: NCI tumour cell line growth inhibition, 48 h
Activity calls are given as the source filed them. No stated cut-off is given here; in the data, active = GI50 up to about 1.1 µM and inactive = higher.

Previously resolved entries follow.
>>> print(df.to_string())
                                   molecule  quantity_measured             measured
0   C/C(=N\NC(=O)N/N=C(\C)c1ccccn1)c1ccccn1               GI50    0.394 µM (active)
1  c1cn(C23C4C5C6C4C2C6C53)cn1 (stereo not drawn)               GI50  > 100 µM (inactive)
2  O=c1s[s+]([O-])c2ccccc12 (stereo not drawn)               GI50  > 100 µM (inactive)
3         O=c1oc2c(ccc3c(O)cccc32)c2c1CCCC2               GI50   4.55 µM (inactive)
4  O=C(OCC(Cl)(Cl)Cl)O[C@@H]1CCCC1(c1ccccc1)c1ccccc1               GI50   12.6 µM (inactive)

Would you mind giving GI50 for every molecule in the list below?
1. CC1=NN(C(=O)c2ccccc2O)C(=O)/C1=C/c1ccc(O)cc1
2. CN(C)CCCOC(=O)C(c1ccccc1)C1(O)CCSCC1 (stereo not drawn)
3. CO[C@H]1c2cccc3cccc(c23)[C@@H]1n1[nH]c(=O)n(C(C)(C)C)c1=O
4. O=C1CCCCC/C=C2/CC[C@H](Sc3ccccc3)[C@@H]12
5. Cc1ccc(S(=O)(=O)NC(=O)C2=C(c3ccccc3)[N-]N(C)c3nc4cccc[n+]4nc32)cc1

0.485 µM (active)
> 100 µM (inactive)
> 100 µM (inactive)
55.2 µM (inactive)
> 100 µM (inactive)

* * *

test system: CAKI-1; experiment: NCI tumour cell line growth inhibition, 48 h
The source made the active and inactive calls. Rule as the data show it: active = GI50 up to about 1.1 µM and inactive = higher.
Hi there, I'd appreciate the recorded GI50 for every entry that follows.

>>> print(df.to_string())
                                   molecule             measured
0  Oc1c(C2=NNC(c3ccc(Cl)cc3Cl)C2)ccc2ccccc12 (stereo not given)   66.5 µM (inactive)
1            N#C/C(=C/c1ccco1)C(=O)c1ccccc1  > 100 µM (inactive)
2  C=CCN(C(=O)OC(C)(C)C)C1=CC2C(C)=CN(S(=O)(=O)c3ccccc3)C2C(OCc2ccccc2)=C1 (stereo not given)  > 100 µM (inactive)
3  O=C1OC(=O)c2c1cc1cc3c(cc1c2-c1ccc2c(c1)OCO2)OCO3  > 100 µM (inactive)

Proceed to the following item.
Please state recorded GI50 (tested on CAKI-1) of O=[N+]([O-])c1ccc(-n2nnc(C3=NCCN3)c2-c2ccccc2)cc1 > 100 µM (inactive)

* * *

system: RPMI-8226; test: NCI tumour cell line growth inhibition, 48 h
Calls of active or inactive are those of the source. No stated cut-off is given here; in the data, active = GI50 up to about 1.1 µM and inactive = higher.
quantity_measured: GI50

Previously resolved entries follow.
                                   compound             measured
0  Oc1ccc(-c2c3c(nc4c2CCc2ccc(Br)cc2-4)-c2cc(Br)ccc2CC3)cc1   26.9 µM (inactive)
1  CCOC(=O)c1oc2cc3c(c4c2c1-c1ccccc1N4C)C=CC(C)(C)O3   12.8 µM (inactive)
2  CC(C)(C)OC(=O)NC(CSSCC(NC(=O)OC(C)(C)C)C(=O)O)C(=O)O (stereo unspecified)  > 100 µM (inactive)
3  O=C1NC2(CN3CCC2CC3)C(=O)N1CN(Cc1ccccc1)c1ccccc1 (stereo unspecified)   28.2 µM (inactive)

Would you mind giving GI50 for every compound in the list below?
1. Cc1cc(C)c(S(=O)(=O)N(CCCCCCN)OCCCN)c(C)c1
2. Cc1nc(N)nc2ccccc12
3. Cc1nc(C)c(C(=O)NNC(=O)Cc2ccccc2)cc1C(=O)NNC(=O)Cc1ccccc1
4. CCN(CC)CCNC(=O)c1cc2cc(NC(=O)c3cc4cc(NC(=O)c5cc6cc(N)ccc6[nH]5)ccc4[nH]3)ccc2[nH]1

1. 31.6 µM (inactive)
2. > 100 µM (inactive)
3. > 100 µM (inactive)
4. > 100 µM (inactive)

Would you mind giving GI50 for every compound in the list below?
1. O=C(NP(=O)(N1CC1)N1CC1)c1cc(I)ccc1I [DIIODBENZOTEPH]
2. CN1c2ccccc2N(C(=O)c2ccc([N+](=O)[O-])cc2)C(CC(=O)O)c2cccn21 (stereo unspecified)
3. c1ccc2c(c1)nc1n2CSC1
4. c1cc(-c2ccc(-c3ccc(C4=NC5CCCCC5N4)cc3)o2)ccc1C1=NC2CCCCC2N1 (stereo unspecified)
5. Cc1c(C(=O)/C=C/c2ccccc2Cl)[n+]([O-])c2ccccc2[n+]1[O-]

1. 52.7 µM (inactive)
2. > 100 µM (inactive)
3. > 100 µM (inactive)
4. 1.76 µM (inactive)
5. 11.9 µM (inactive)

Would you mind giving GI50 for every compound in the list below?
1. CC(C)OP(=O)(c1ccccc1)c1ccc2c(c1)OCCOCCOCCOCCO2 (stereo unspecified)
2. O=C1CCCCC/C=C2/CC[C@H](Sc3ccccc3)[C@@H]12
3. COc1cc(/C=C/C(=O)CC(=O)/C=C/c2ccc(O)c(OC)c2)ccc1O [CURCUMIN]
4. CCOP(=O)(CC1OC(CO)C(O)C1O)OCC (stereo unspecified)
5. Nc1ccc(-c2nc3cc(F)ccc3s2)cc1

["> 100 µM (inactive)", "> 100 µM (inactive)", "2.09 µM (inactive)", "> 100 µM (inactive)", "> 100 µM (inactive)"]

* * *

test system: UACC-257; assay: NCI tumour cell line growth inhibition, 48 h
Calls of active or inactive are those of the source. No stated cut-off is given here; in the data, active = GI50 up to about 1.1 µM and inactive = higher.
Can you answer with just one of these options? 1 (active), 0 (inactive)

compound	assigned_label
c1cn(C23C4C5C6C4C2C6C53)cn1 (stereo unspecified)	0

Now consider a different compound.
Please share the test call associated with O=C(c1ccccc1)C1N=NN(Cc2ccccc2[N+](=O)[O-])C1C(=O)c1ccccc1 (stereo unspecified) . 0

* * *

test system: A549; assay: NCI tumour cell line growth inhibition, 48 h
The source made the active and inactive calls. Cut-off read from the data, not from the text of the source: active = GI50 up to about 1.1 µM and inactive = higher.
quantity_measured: GI50

Previously resolved entries follow.
                                   compound             measured
0         COc1ccc(Nc2nc3ccccc3nc2C(=O)O)cc1  > 100 µM (inactive)
1  CCCCCCCCCCCC(=O)C1=C(O)CCC(O)C1=O (stereo not given)   29.9 µM (inactive)
2  Cc1nc(C)c(C(=O)NNC(=O)Cc2ccccc2)cc1C(=O)NNC(=O)Cc1ccccc1  > 100 µM (inactive)
3  Cc1c(C(=O)/C=C/c2ccccc2)[n+]([O-])c2ccccc2[n+]1[O-]   18.4 µM (inactive)
4        COc1cccc(C(=O)C#Cc2cnc(OC)nc2OC)c1   4.82 µM (inactive)
5  CC(=O)Oc1ccc(Nn2c3ccccc3c3ccccc32)c(C)c1   56.8 µM (inactive)

Would you mind giving GI50 for every compound in the list below?
1. CC(NC(=O)C(OC(=O)C(C)NC(=O)OC(C)(C)C)C(C)C)C(=O)OC(C(=O)O)C(C)C (stereo not given)
2. Cc1ccc(/C=C2\Cc3c(C)cc(C)cc3C2=O)c(C(=O)O)c1
3. CCN(c1n[n+]2c(-c3ccccc3)csc2s1)c1n[n+]2c(-c3ccccc3)csc2s1
4. C/C(=N\NC(=O)N/N=C(\C)c1ccccn1)c1ccccn1

> 100 µM (inactive)
49.9 µM (inactive)
> 100 µM (inactive)
4.88 µM (inactive)
